Data provenance is ChEMBL document CHEMBL2169739.

In what follows, each item is paired with its Ki for Tyrosine-protein kinase JAK2 (Homo sapiens, UniProt O60674).
recordedMetric: Ki (nM)

## Input Form field: reported Ki of CNc1nc(Nc2ccc(C(=O)N3CCOCC3)cc2OC)ncc1Br
## Output 3000

[A] Cc1cc(-c2ccc3nc(Nc4ccccc4)nn3c2)cc(C)c1C
[B] CNc1nc(Nc2ccccc2)ncc1Cl
## Input I would appreciate it if you could say which entry, A or B , has the lower Ki value. Your answer should be the label of the entry you select.
## Output A

----------
test: Ratio of AUC (total) in brain to plasma of P-gp/BCRp knock out mouse at 1 mg/kg, iv; format: ADME, organism-based; design: dose 1 mg/kg, route intravenous; details: brain and plasma
recordedMetric: Kp
The answer should be a number; do not append a unit.

## Input Form field: reported Kp of CNc1nc(Nc2ccc(C(=O)N3CCOCC3)cc2OC)ncc1Cl
## Output 2.9

----------
assay: Ratio of fAUC in brain to plasma of wild type FVB mouse at 1 mg/kg, iv; assay type: ADME, organism-based; parameters: dose 1 mg/kg, route intravenous; settings: brain and plasma
recordedMetric: Kp uu
The answer should be a number; do not append a unit.

## Input Form field: reported Kp uu of CNc1nc(Nc2ccc(C(=O)N3CCOCC3)cc2OC)ncc1Cl
## Output 0.61

----------
test: Half life in mouse at 1 mg/kg, iv; format: ADME, organism-based; set-up: dose 1 mg/kg, route intravenous; conditions: in vivo
recordedMetric: half-life (min)
Lab book: enter the figure in min, no units written.

## Input Form field: reported half-life of CNc1nc(Nc2ccc(C(=O)N3CCOCC3)cc2OC)ncc1Cl
## Output 13.8
